Molecular target: Cellular tumor antigen p53 (Homo sapiens) (UniProt P04637)
Sequence (P04637 whole entry, looked up): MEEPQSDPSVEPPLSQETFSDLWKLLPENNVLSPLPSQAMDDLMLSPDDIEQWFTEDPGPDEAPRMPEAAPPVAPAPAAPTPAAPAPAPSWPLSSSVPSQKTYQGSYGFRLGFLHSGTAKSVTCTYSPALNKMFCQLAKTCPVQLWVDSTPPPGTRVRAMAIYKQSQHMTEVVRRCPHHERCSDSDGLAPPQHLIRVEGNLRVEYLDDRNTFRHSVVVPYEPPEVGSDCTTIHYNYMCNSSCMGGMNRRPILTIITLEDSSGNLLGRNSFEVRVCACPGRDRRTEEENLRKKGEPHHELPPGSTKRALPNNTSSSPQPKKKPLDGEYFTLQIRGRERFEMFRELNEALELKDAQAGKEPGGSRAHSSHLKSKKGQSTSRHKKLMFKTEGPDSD
Test: kinase inhibitors altering GFP-p53 stability in HPV16-positive cells, imaging, known kinase inhibitor set, EGFP/DsRed ratio (AID 1053116);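 also: test concentration not given here; cells exposed to compounds for 24 h at 37 °C before reading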
Conditions: stronger effect = higher value; measured here: GFP-p53 positive objects count
The label depends only on EGFP object count: condition met if it is at least 4, condition not met if it is smaller.

// query Reported EGFP object count reaches at least 4 for `COc1cc(Nc2ncc3c(C)nc(-c4cccc(C(F)(F)F)c4)n3n2)cc(OC)c1OC` ?
// result condition met

// query Reported EGFP object count reaches at least 4 for `CCc1ccc(Oc2nccc(-c3c(-c4ccc(F)cc4)ncn3C3CCNCC3)n2)cc1` ?
// result condition met

// query Reported EGFP object count reaches at least 4 for `Cn1cc(C2=C(Sc3ccccc3)C(=O)NC2=O)c2ccccc21` ?
// result condition not met

// query Reported EGFP object count reaches at least 4 for `Cn1cc(C2=C(c3cn(C)c4ccc(OCc5ccccc5)cc34)C(=O)NC2=O)c2ccccc21` ?
// result condition met

// query Reported EGFP object count reaches at least 4 for `COc1ccccc1CN=C1NC(=O)C(=Cc2ccc3ncccc3c2)S1` ?
// result condition met

// query Reported EGFP object count reaches at least 4 for `COc1ccc2cc(-c3c(-c4ccncc4)nc(-c4ccc(S(C)(=O)=O)cc4C)n3C)ccc2c1` ?
// result condition not met

// query Reported EGFP object count reaches at least 4 for `O=C1NC(=O)C(c2cccc(Cl)c2)=C1Nc1ccc(O)c(Cl)c1` ?
// result condition met

// query Reported EGFP object count reaches at least 4 for `O=C1NC(=NCc2c(Cl)cccc2Cl)SC1=Cc1ccc2ncccc2c1` ?
// result condition not met

// data source = PubChem BioAssay
